EXPERIMENTAL SYSTEM: T1, human TMEM106B (human, UniProt Q9NUM4 2-274)
T1 construct: full-length, transiently expressed on HEK293 cells, or natively expressed on HeLa, U251 and A549 cells (the cell is named under assay); also the source of the Pepscan peptides; also called huTMEM106B; huTMEM
EXPERIMENTAL PROTOCOL: FACS A549 10 ug/ml
Binary call on MFI: 1 from 2000 MFI upward, 0 beneath that.

Dear colleague, could you confirm whether TM-21 (antibody, V domains shown) VH: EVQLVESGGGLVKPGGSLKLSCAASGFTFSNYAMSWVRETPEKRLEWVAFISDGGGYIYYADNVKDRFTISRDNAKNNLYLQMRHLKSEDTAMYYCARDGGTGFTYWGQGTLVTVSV VL: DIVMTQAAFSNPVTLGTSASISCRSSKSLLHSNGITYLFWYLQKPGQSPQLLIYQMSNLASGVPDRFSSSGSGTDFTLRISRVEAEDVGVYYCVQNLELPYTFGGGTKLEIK has MFI at or above 2000 MFI? 1

One more binder: TM-7 (antibody, V domains shown) VH: EVQLQQSGPVLVKPGPPVKISCKASGFTFTDYYIHWVKLSHGKSLEWIGLVYPYNGDTDYNQKFKGKATLTVDTSSSTAYMELNSLTSEDSAVYYCARTYYANSPDYWGQGTTVTVSS VL: DIVMTQSPSSLSVSAGEKVTMSCKSSQSLLNSGNQRNYLAWYQQKPGQPPKLLIYGASTRESGVPDRFTGSGSGTDFTLTISNVQAEDLAVYYCQNDHSYPLTFGAGTKLELK 0

One more binder: TM-10 (antibody, V domains shown) VH: QVQLQQSGAELVKPGASVKISCKGSGYAFSSYWMNWVKQRPGKGLEWIGQIYPGDGDTNYNGKFKGKATLTADKSSTTAYIHLSSLTSEDSAVYFCARWGHYDEAMDDWGQGTSVTVSS VL: DVVMTQTPLSLPVSLGDQASISCRSSQSLVHSNGKTYLHWYVQKPGQSPKLLIYKISNRFSGVPDRFSGSGSGTDFTLKISRVEAEDLGVYFCSQITHVPWTFGGGTKLESK 0

One more binder: TM-27 (antibody, V domains shown) VH: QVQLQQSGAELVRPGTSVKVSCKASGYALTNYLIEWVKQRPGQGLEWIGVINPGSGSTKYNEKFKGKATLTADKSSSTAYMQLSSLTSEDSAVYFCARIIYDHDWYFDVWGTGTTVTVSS VL: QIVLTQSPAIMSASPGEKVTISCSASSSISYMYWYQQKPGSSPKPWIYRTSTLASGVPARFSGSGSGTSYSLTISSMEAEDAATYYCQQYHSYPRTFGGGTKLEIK 0

One more binder: TM-39 (antibody, V domains shown) VH: HVQRQQSGTELAKPGASVKLSCKTSGYTFTDYWMHWIKQRPGQGLEWIGFINPSSGYTKYNQNFKDKATLTADKSSSTAYMQLSSLTYEDSAVFYCAREAGSISDWYFDVWGTGTTVTVSS VL: DIVMTQAAPSIPVTPGESVSISCRSSKTLLNSNGNTYLYWFLQRPGQPPQLLIYRMSNLASGVPDRFSGSGSGTAFTLRISRVEAEDVGVYYCMQHLDYPYTFGGGTQLEIK 1

One more binder: TM-9 (antibody, V domains shown) VH: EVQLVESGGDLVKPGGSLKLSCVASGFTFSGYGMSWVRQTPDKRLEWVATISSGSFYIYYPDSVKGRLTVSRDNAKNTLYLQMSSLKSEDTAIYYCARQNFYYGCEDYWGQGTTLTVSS VL: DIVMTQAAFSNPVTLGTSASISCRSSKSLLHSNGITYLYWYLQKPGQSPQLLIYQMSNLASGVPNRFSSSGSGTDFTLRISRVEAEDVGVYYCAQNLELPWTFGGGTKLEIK 1

One more binder: TM-29 (antibody, V domains shown) VH: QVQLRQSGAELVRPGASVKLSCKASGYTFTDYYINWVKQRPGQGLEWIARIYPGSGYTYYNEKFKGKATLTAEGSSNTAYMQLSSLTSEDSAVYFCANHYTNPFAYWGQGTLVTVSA VL: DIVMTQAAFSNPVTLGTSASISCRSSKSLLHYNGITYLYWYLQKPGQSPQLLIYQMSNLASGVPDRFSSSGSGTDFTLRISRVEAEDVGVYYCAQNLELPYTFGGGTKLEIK 1

This collection of values is drawn from patent US20200339680A1.
